study.target: T1, Fc tagged human SIRPα v2 ECD recombinant protein (human)
T1 construct: range 1-369; also called hFc tagged human SIRPα v2 ECD
protocol.text: ELISA, coated Fc tagged human SIRPα v2 ECD
readout.type: pEC50
Scale for pEC50: -log10 of concentration given in mol/L; no unit attached.

042 (antibody, V domains shown, Mouse monoclonal hybridoma antibody; also called antibody 042; hybridoma antibody 042) VH: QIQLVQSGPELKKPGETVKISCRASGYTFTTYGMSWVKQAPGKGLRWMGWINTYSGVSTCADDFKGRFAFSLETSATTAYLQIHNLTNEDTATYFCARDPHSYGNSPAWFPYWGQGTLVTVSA VL: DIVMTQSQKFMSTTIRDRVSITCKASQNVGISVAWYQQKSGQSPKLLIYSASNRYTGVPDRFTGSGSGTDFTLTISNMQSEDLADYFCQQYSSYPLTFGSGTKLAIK: 10.52
015 (antibody, V domains shown, Mouse monoclonal hybridoma antibody; also called antibody 015; hybridoma antibody 015) VH: EVQLQQSGVEVVQPGASVKLSCTASGFNIEAYYMHWVKQRTEQGLEWIGRIDPEDGESKYAPKFQGKATMTADTSSSTAYLQLSSLTSDDTAVYYCVRGSYEYWGQGTTLTVSS VL: QIVLTQSPAIMSASPGEKVTLTCSASSSVSSSYLYWYQQKPGSSPKLWIYSTSNLASGVPPRFSGSGSGTSYSLTISSMQAEDAASYFCYQWSSYPYTFGGGTKLEIK: 9.82
073 (antibody, V domains shown, Mouse monoclonal hybridoma antibody; also called antibody 073; hybridoma antibody 073) VH: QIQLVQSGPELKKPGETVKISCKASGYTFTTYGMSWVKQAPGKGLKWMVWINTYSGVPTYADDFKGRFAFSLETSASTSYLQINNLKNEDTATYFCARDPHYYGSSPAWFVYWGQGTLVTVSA VL: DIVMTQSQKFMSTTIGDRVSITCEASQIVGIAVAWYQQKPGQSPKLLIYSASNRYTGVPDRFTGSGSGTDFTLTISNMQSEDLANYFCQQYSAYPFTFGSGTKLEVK: 10.52
071 (antibody, V domains shown, Mouse monoclonal hybridoma antibody; also called antibody 071; hybridoma antibody 071) VH: QIQLVQSGPELKKPGETVKISCKASGYTFTTYGMSWVKQAPGKGLKWMVWINTYSGVPTYADDFQGRFAFSLETSASTSYLQINNLRNEDTATYFCARDPHYYGTSPAWFAYWGQGTLVTVSA VL: DIVMTQSQKFMSTTIGDRVIITCKASQIVGIAVAWYQQKPGQSPKLLIYSASNRFTGVPDRFTGSGSGTDFTLTISNMQSEDLADYFCQQYSTYPFTFGSGTKLEIK: 10.70
005 (antibody, V domains shown, Mouse monoclonal hybridoma antibody purified on Protein A; also called antibody 005; hybridoma antibody 005) VH: EVKLVESGGGLVQPGGSLSLSCAASGFTFTDYYMSWVRQPPGKALEWLGFIKNEANGYTTESSASVKGRFTISRDNSQSILYLQMNALRAEDSATYYCARYDYYGSNYNWYFDAWGTGTTVTVSS VL: DIVMTQSQKFMSPSVGDRVSITCKASQNVRTAVAWYQQKPGQSPKVLIHLASKRHTGVPDRFTGSGSGTDFTLTISNVQSEDLADYFCLQHWIHPLTFGAGTKLELK: 9.92

Need pEC50 of 059 (antibody, V domains shown, Mouse monoclonal hybridoma antibody; also called antibody 059; hybridoma antibody 059) VH: QVQLQQSGPELVKPGASVKMSCKASGYTFSEYVLSWVKQRTGQGLEWIGEIYPGTITTYYNEKFKGKATLTADKSSNTAYIQLTSLTSEDSAVYFCGRFYDYDGGWFAYWGQGTLLTVSA VL: ENVLTQSPEKMAVSLGQKVTMTCSASSSVSSSDLHWYQQKSGASPKPLIHGTSNLASGVPARFSGSGSGTSYSLTISSVEAEDAATYYCQQWSGYPWTFGGGTNLEIK , thanks. 10.00

Input 025 (antibody, V domains shown, Mouse monoclonal hybridoma antibody; also called antibody 025; hybridoma antibody 025) VH: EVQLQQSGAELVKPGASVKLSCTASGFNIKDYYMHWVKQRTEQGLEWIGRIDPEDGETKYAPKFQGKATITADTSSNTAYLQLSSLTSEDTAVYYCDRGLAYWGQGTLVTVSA VL: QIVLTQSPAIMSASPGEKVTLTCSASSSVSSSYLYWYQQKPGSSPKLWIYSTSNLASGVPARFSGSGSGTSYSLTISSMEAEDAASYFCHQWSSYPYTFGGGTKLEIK 10.22
